- EXPERIMENTAL_PROTOCOL: Mammalian cytotoxicity assay (resazurin), COS-1 cells
- Format: cell-based
- TEST_SETTINGS: African green monkey, read-out: Cytotox. COS-1
Entries and their IC50 at 24 h values follow.
MEASURED_ATTRIBUTE: IC50 at 24 h

{"STRUCTURE_STRING": "CN(C)[C@@H]1C(O)=C(C(N)=O)C(=O)[C@@]2(O)C(O)=C3C(=O)c4c(O)ccc(-c5cccc(C(=O)NCCN)c5)c4C[C@H]3C[C@@H]12", "MEASURED_ATTRIBUTE": "IC50 at 24 h", "RESULT": "> 46.8 µM"}
{"STRUCTURE_STRING": "CN(C)CC/C(=N\\OC(C)(C)C)c1ccc(O)c2c1C[C@H]1C[C@H]3[C@H](N(C)C)C(O)=C(C(N)=O)C(=O)[C@@]3(O)C(O)=C1C2=O", "MEASURED_ATTRIBUTE": "IC50 at 24 h", "RESULT": "82.2 µM"}
{"STRUCTURE_STRING": "CNCCNC(=O)c1cccc(-c2ccc(O)c3c2C[C@H]2C[C@H]4[C@H](N(C)C)C(O)=C(C(N)=O)C(=O)[C@@]4(O)C(O)=C2C3=O)c1", "MEASURED_ATTRIBUTE": "IC50 at 24 h", "RESULT": "> 143 µM"}
{"STRUCTURE_STRING": "C=CCNCC(=O)c1ccc(O)c2c1C[C@H]1C[C@H]3[C@H](N(C)C)C(O)=C(C(N)=O)C(=O)[C@@]3(O)C(O)=C1C2=O", "MEASURED_ATTRIBUTE": "IC50 at 24 h", "RESULT": "> 122 µM"}
{"STRUCTURE_STRING": "CN(C)CCNC(=O)c1ccc(O)c2c1C[C@H]1C[C@H]3[C@H](N(C)C)C(O)=C(C(N)=O)C(=O)[C@@]3(O)C(O)=C1C2=O", "MEASURED_ATTRIBUTE": "IC50 at 24 h", "RESULT": "> 126 µM"}
{"STRUCTURE_STRING": "CN(CCOC(C)(C)C)Cc1cccc(-c2ccc(O)c3c2C[C@H]2C[C@H]4[C@H](N(C)C)C(O)=C(C(N)=O)C(=O)[C@@]4(O)C(O)=C2C3=O)c1", "MEASURED_ATTRIBUTE": "IC50 at 24 h", "RESULT": "22.8 µM"}
